// reported switch fluorescence ratio per item
Test system: ATP;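 note: ATP exposure 15 min at 22 °C before imaging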
Test: switch fluorescence ratio, 500 uM ATP over buffer (Cy3 cluster intensity, sum of 5 cycles each) (fold (ratio)); higher = stronger signal-on switching upon ATP binding; sequences stand for … in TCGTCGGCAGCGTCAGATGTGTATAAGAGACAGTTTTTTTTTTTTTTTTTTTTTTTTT…TC
Details: aptamer strand: ATP DNA aptamer (quencher-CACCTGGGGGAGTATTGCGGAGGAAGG + anchor), 100 nM annealed; ATP concentration: 500 uM

Here are 3 sequences together with their reported answers.
>>> df
   polymer_sequence  experimental_result
0        ACCCGTAAGA                 1.22
1        GCTGGAGCCA                 1.03
2        TGAGCATGAA                    1

[Q] Quickly give me recorded switch fluorescence ratio for `ACTGTGCTCT`
[A] 1.02

[Q] Provide one value: measured switch fluorescence ratio of `ACCTGTGATC`
[A] 1.02

###

System: ATP;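 note: ATP exposure 15 min at 22 °C before imaging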
Assay: switch fluorescence ratio, 500 uM ATP over buffer (Cy3 cluster intensity, sum of 5 cycles each) (fold (ratio)); higher = stronger signal-on switching upon ATP binding; sequences stand for … in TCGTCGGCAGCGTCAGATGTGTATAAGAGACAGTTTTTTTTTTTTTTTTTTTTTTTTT…TC
Details: aptamer strand: ATP DNA aptamer (quencher-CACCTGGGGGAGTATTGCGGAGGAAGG + anchor), 100 nM annealed; ATP concentration: 500 uM
PROPERTY_NAME: switch fluorescence ratio

# example entries with known answers
>>> print(df.to_string())
   polymer_sequence  test_system              property_name  experimental_result
0        CCGAAGGATT          ATP  switch fluorescence ratio                 1.02
1        CGAAATGCGG          ATP  switch fluorescence ratio                0.982
2        TGATTGTATG          ATP  switch fluorescence ratio                 1.01

[Q] Identify the reported switch fluorescence ratio for the following entry. `GAGAGGGGTC`
[A] 1.01

[Q] For the sequence `GATACTTCTA` , report switch fluorescence ratio.
[A] 0.972

[Q] Recall and state the measured switch fluorescence ratio for `AGATTATGTT` .
[A] 1.01

[Q] Provide one value: measured switch fluorescence ratio of `CATGAGTAAG`
[A] 1

[Q] Hello, please tell me recorded switch fluorescence ratio for this one: `TGGTGCTGGG`
[A] 0.973

[Q] Report switch fluorescence ratio for `GCTTGTGAGG`
[A] 1.02

[Q] Report switch fluorescence ratio, nothing else, for this sequence: `TTATATCGGT`
[A] 0.971

[Q] Specify reported switch fluorescence ratio for the sequence shown: `TGAGGTCATT`
[A] 0.989

[Q] State its switch fluorescence ratio: `TAAGCTTTTG`
[A] 1.02

[Q] Fill in reported switch fluorescence ratio for this entry: `TTCAGTGTTT`
[A] 0.993

[Q] Query switch fluorescence ratio for `TTTTGATGTT`
[A] 0.988

[Q] // fetch switch fluorescence ratio given entry `GGTTCGGATC`
[A] 0.993

[Q] Provide measured switch fluorescence ratio value, entry: `CCGTCAGGTT`
[A] 1.01

[Q] Please indicate switch fluorescence ratio recorded for `AAACGGCGTT`
[A] 0.973

[Q] Using the record for `ATTCTTGTTC` , state its measured switch fluorescence ratio.
[A] 0.981

[Q] Please give the documented switch fluorescence ratio of `ATGTAGACGG`
[A] 0.984

###

Tested on: ATP;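 note: ATP exposure 15 min at 22 °C before imaging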
Experiment: switch fluorescence ratio, 500 uM ATP over buffer (Cy3 cluster intensity, sum of 5 cycles each) (fold (ratio)); higher = stronger signal-on switching upon ATP binding; sequences stand for … in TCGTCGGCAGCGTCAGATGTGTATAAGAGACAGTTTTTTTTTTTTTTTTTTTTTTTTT…TC
Conditions: aptamer strand: ATP DNA aptamer (quencher-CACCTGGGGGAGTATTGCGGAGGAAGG + anchor), 100 nM annealed; ATP concentration: 500 uM
PROPERTY_NAME: switch fluorescence ratio
Give the figure by itself; no unit, no explanation.

   polymer_sequence  experimental_result
0        TATGGGGGGA                 1.02
1        CCTTAGTGAC                 1.36

[Q] Annotate the sequence `TACACTGATA` with its measured switch fluorescence ratio.
[A] 1.08

###

Tested on: ATP;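 note: ATP exposure 15 min at 22 °C before imaging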
Assay: switch fluorescence ratio, 500 uM ATP over buffer (Cy3 cluster intensity, sum of 5 cycles each) (fold (ratio)); higher = stronger signal-on switching upon ATP binding; sequences stand for … in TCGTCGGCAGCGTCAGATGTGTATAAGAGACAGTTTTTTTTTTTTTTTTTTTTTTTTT…TC
Settings: aptamer strand: ATP DNA aptamer (quencher-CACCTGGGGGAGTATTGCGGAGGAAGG + anchor), 100 nM annealed; ATP concentration: 500 uM
PROPERTY_NAME: switch fluorescence ratio
Give only the figure.

In [3]: df
Out[3]:
   polymer_sequence  experimental_result
0        GGCTGGGGTG                 1.04
1        TTCAGAGGGG                0.997

Proceed to the following item.
[Q] Give switch fluorescence ratio for `ACGGGGAGTC`
[A] 1.04

###

In this section we review reported switch fluorescence ratio values for a set of sequences.
System: ATP;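 note: ATP exposure 15 min at 22 °C before imaging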
Test: switch fluorescence ratio, 500 uM ATP over buffer (Cy3 cluster intensity, sum of 5 cycles each) (fold (ratio)); higher = stronger signal-on switching upon ATP binding; sequences stand for … in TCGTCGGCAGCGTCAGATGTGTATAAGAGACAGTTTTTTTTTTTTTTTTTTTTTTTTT…TC
Conditions: aptamer strand: ATP DNA aptamer (quencher-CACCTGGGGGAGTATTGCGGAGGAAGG + anchor), 100 nM annealed; ATP concentration: 500 uM
Give the value as a plain number.

Example entries begin here.
   polymer_sequence              property_name  experimental_result
0        CTATGCGTAC  switch fluorescence ratio                 3.51
1        ACGGGTTGTT  switch fluorescence ratio                 1.02
2        AGAGCCGCTG  switch fluorescence ratio                 1.02
3        GGATAGTGTT  switch fluorescence ratio                0.988
4        CGTCCATATG  switch fluorescence ratio                 1.02
5         TTTATGAGG  switch fluorescence ratio                0.997
6        CGGGGTTCCG  switch fluorescence ratio                0.953
7        GTTTTGACAT  switch fluorescence ratio                0.993

[Q] State its switch fluorescence ratio for this sequence: `GTTGTGGGCG`
[A] 0.977

[Q] Give me measured switch fluorescence ratio, please, for this sequence: `CGATTGCGTG`
[A] 1

[Q] Identify measured switch fluorescence ratio associated with `CCGTTGAAAT`
[A] 1.22

###

Tested on: ATP;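 note: ATP exposure 15 min at 22 °C before imaging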
Assay: switch fluorescence ratio, 500 uM ATP over buffer (Cy3 cluster intensity, sum of 5 cycles each) (fold (ratio)); higher = stronger signal-on switching upon ATP binding; sequences stand for … in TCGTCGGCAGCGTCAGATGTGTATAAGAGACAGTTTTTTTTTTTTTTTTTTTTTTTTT…TC
Details: aptamer strand: ATP DNA aptamer (quencher-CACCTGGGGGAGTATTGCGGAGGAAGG + anchor), 100 nM annealed; ATP concentration: 500 uM
Listed sequences paired with reported switch fluorescence ratio
// print number alone

>>> print(df.to_string())
   polymer_sequence  test_system  experimental_result
0        AGGAGGGGGG          ATP                 1.01
1        TCTTTTTCCT          ATP                 1.05
2        AGGAATAGCG          ATP                 1.02
3        AAGTTTTGGA          ATP                 1.02

[Q] State, for ATP, measured switch fluorescence ratio of the sequence listed here: `AATCTTGGGA`
[A] 0.977

###

switch fluorescence ratio for assorted sequences
System: ATP;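 note: ATP exposure 15 min at 22 °C before imaging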
Test: switch fluorescence ratio, 500 uM ATP over buffer (Cy3 cluster intensity, sum of 5 cycles each) (fold (ratio)); higher = stronger signal-on switching upon ATP binding; sequences stand for … in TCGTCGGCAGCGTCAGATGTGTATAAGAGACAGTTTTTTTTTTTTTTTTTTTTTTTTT…TC
Details: aptamer strand: ATP DNA aptamer (quencher-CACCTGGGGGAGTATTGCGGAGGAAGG + anchor), 100 nM annealed; ATP concentration: 500 uM
Reply with the value as a number alone.

Known results for sequences:
>>> df
   polymer_sequence  test_system              property_name  experimental_result
0        TGAGGGCAAG          ATP  switch fluorescence ratio                 1.02
1        AATCTACTGA          ATP  switch fluorescence ratio                 1.01
2        TCAGCTCCGT          ATP  switch fluorescence ratio                 1.08
3        GTTTAAAACG          ATP  switch fluorescence ratio                0.996

[Q] Find the measured switch fluorescence ratio of `TTGGCGCTGT` with ATP as test system.
[A] 0.971

[Q] # return switch fluorescence ratio of `ATGGTCAGAT` (system: ATP);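 note: ATP exposure 15 min at 22 °C before imaging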
[A] 0.994

[Q] Given `TGAGGGGGTG` , report its switch fluorescence ratio on ATP.
[A] 1

[Q] Report its switch fluorescence ratio with ATP as the test system: `GAAGTGTCGG`
[A] 1

[Q] Report its switch fluorescence ratio with ATP as the test system: `TTTAGAGAGC`
[A] 0.987

[Q] Report the value of switch fluorescence ratio obtained on ATP for `AATACGGGGA` .
[A] 1.02

[Q] Given `TTCAACGGGG` , report its switch fluorescence ratio on ATP.
[A] 0.995

[Q] Give switch fluorescence ratio; test system ATP; sequence `AGATAGAGTG`;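 note: ATP exposure 15 min at 22 °C before imaging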
[A] 0.996

[Q] Provide switch fluorescence ratio, tested on ATP, for `GGGGGCTTGA` .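 Note: ATP exposure 15 min at 22 °C before imaging.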
[A] 0.954

[Q] Using ATP as the test system, report measured switch fluorescence ratio of `TCCTGTGGGA` .
[A] 1.01

[Q] Please report switch fluorescence ratio with ATP for item `GAACTAGGTT` .
[A] 0.985

[Q] Recall the reported switch fluorescence ratio of `TTTCAAATTC` when tested on ATP.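 Note: ATP exposure 15 min at 22 °C before imaging.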
[A] 0.981
